TARGET_OR_SYSTEM: Mitogen-activated protein kinase 1 (Homo sapiens) (UniProt P28482)
Sequence (P28482 whole entry): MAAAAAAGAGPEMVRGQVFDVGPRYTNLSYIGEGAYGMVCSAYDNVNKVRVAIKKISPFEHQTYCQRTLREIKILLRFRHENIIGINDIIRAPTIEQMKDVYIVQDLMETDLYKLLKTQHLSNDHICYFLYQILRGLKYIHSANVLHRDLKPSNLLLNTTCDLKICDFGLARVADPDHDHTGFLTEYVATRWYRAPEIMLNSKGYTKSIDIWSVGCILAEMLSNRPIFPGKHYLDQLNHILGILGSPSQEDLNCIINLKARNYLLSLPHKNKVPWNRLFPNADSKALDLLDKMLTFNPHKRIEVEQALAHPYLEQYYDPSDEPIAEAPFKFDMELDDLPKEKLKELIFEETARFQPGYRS
CONDITION_LABEL: Compound concentration 20.0 uM, Protein concentration 2.0 uM, Result type QC Liability
Description: Thermal Shift Assay. Domain: start/stop: M1-S360
QUANTITY_KIND: ΔTm (°C)
One number for each entry, in °C.

// solved cases for ΔTm follow
[
  {
    "INPUT_SMILES": "N=C(N)NCCC[C@H](NC(=O)C(c1ccccc1)c1ccccc1)C(=O)NCc1ccc(CNC(N)=O)cc1",
    "EXPERIMENTAL_VALUE": 0.19
  },
  {
    "INPUT_SMILES": "O=C(CCCCCCc1ccccc1)c1ncc(-c2ccccn2)o1",
    "EXPERIMENTAL_VALUE": -0.04
  },
  {
    "INPUT_SMILES": "CCCCNc1ncc2c(-c3ccc(CN4CCN(C)CC4)cc3)cn([C@H]3CC[C@H](O)CC3)c2n1",
    "EXPERIMENTAL_VALUE": 0.43
  },
  {
    "INPUT_SMILES": "Cc1ccc(C(=O)Nc2cc(N3CCN(C)CC3)cc(C(F)(F)F)c2)cc1-n1cc(-c2cnn(C)c2C)nn1",
    "EXPERIMENTAL_VALUE": 0.45
  },
  {
    "INPUT_SMILES": "CC/C(=C(\\c1ccccc1)c1ccc(OCCN(C)C)cc1)c1ccccc1",
    "EXPERIMENTAL_VALUE": -0.3
  }
]

For the 4 compounds below, give their ΔTm values.
1. CN1CC(=O)N(C)c2cnc(Nc3ccc(NC(=O)Nc4cccc(C(=O)O)c4)cc3)nc21
2. c1ccc2c(c1)SCc1c-2[nH]c2ccccc12
3. CC[C@@H](CO)Nc1nc(Nc2cccc(NC(=O)C(C)(C)C)c2)ncc1F
4. Cn1ncc(NC(=O)c2nc(-c3c(F)cccc3F)sc2N)c1N1CC[C@@H](N)[C@H](F)CC1

Reply:
1. 0.43
2. 0.46
3. 0.54
4. 0.32

This collection of values is drawn from ChEMBL document CHEMBL5308504.
